GI50 for assorted compounds
System: UACC-257
Assay: NCI tumour cell line growth inhibition, 48 h
Calls of active or inactive are those of the source. Rule as the data show it: active = GI50 up to about 1.1 µM and inactive = higher. Where a SMILES comes first, the peptide text is derived from it. The star is where a group is joined. Boc = CC(C)(C)OC(=O)*; OBn = c1ccc(CO*)cc1

Use these answered entries as a reference point.
O=[N+]([O-])c1ccc(N/N=C/c2ccc(OCCCCCCCCCCCO)cc2)c([N+](=O)[O-])c1 :: 4.91 µM (inactive)
CCc1cccc(C(C)C)c1NC(=O)C(=O)C1C(=O)NC(=O)NC1=O :: > 100 µM (inactive)
CC(C)CC(NC(=O)C(Cc1ccccc1)NC(=O)C(Cc1ccccc1)NC(=O)OC(C)(C)C)C(=O)OCc1ccccc1 (stereo not drawn) (Boc-Phe-Phe-Leu-OBn; configuration not given here) :: > 100 µM (inactive)

Field request: GI50 | item: `Cc1cc2c(c(C(=O)NCC(=O)O)c1)Oc1c(cc(C)cc1C(=O)NCC(=O)O)S2`
> 100 µM (inactive)

Cool, now `CCN(CC)C(=S)/N=C(\SC(=S)N(CC)CC)c1ccccc1`
45.7 µM (inactive)

Same lookup for `Nc1cccc(Nc2nc3ccccc3nc2NS(=O)(=O)c2ccccc2)c1` , please.
31.3 µM (inactive)

Follow-up entry: COC1CC(OC)C(O)C(CO)O1 (centres undefined)
> 100 µM (inactive)

Next compound up: `COC(=O)c1ccccc1/C=C1\Cc2c(C)c3c(c(C)c2C1=O)CCC3`
> 100 µM (inactive)

Also C=C1CC(C/C=C(\C)CC2CC(=C)C(=O)O2)OC1=O (centres undefined) , if possible.
> 100 µM (inactive)
